Test: yeast display, Sf9 membrane polyspecificity reagent, FACS + sequencing; frameworks hold sequencing errors

polymer_sequence	polyreactivity (PSR sort gate)
QDQLVESGGGLVQAGGSLRLSCAASGFNFDRYAMGWYRQAPGKERELVAAISRRGGSTYYADSVKGRFTISRDNAKNTVYLQMNSQKPEDTAVYYCAASRPSPRPRYGYWGQGTQVTVSS	high polyreactivity
QVQLVESGGGLVQAGGSLRLSCAASGSIFRSNSMGWYRQAPGKERELVAAISSRGGSTYYADSVKGRFTISRDNAKNTVYLQMNSLKPEDTAVYYCYKDRYTVISYDEYDYWGQGTQVTVSS	high polyreactivity
QVQLVESGGGLVQAGGSLRLSCASSGSNFGRYAMGWYRQAPGKEREFVAAISRSSDNTSYADSVKGRFTISRDIAKNTVYLQMNRLNPEDRAVYYCNADRPFSLGQRKYVDFDEPYNYWGQGTQVTVSS	low polyreactivity
QVQLVESGGGLFQAGGSLRLSCAASGITFKGYTMGWYRQAPGKERELVATISRGGRTYADSVKGRFTISRDNAKNTVLLQMNSLKPEDTAVYYCAADKYWAQNDYWGQGTQVTVSS	low polyreactivity
QVQLVESGGGLVQAGGSLRLSCAASGSTSSPYAMGWYRQAPGKERELVAAITSGGSTNYADSVKGRFTISRDNAKNTVYLEMNSLKPEDTAVYYCATRIYGWSFGSWYKYDYRGQGTQVTVSS	low polyreactivity
QVQLVESGGGSVQAGGSLRLSCAASGSTFRYYAMGWYRQAPGKERELVARITSRAGRTYYADSVKGRFTISRDNAKNTVYLQMNSLKPEDTAVYYCNTRDFSGYVHALSLYDYWGQGTQVTVSS	high polyreactivity
QVQLVESGGGLVQAGGSLRLSCAASGLTLYRYAMGWYRQAPGKERELVAGISWGGGSTYYADSVKGRFTISRDNAKNTVYLQMNSLKPEDTAVYYCAAGRLLYIPRYYYWGQGTQVTVSS	high polyreactivity
QVQLVESGGGLVQAGGSLRLSCAASGYTFYANAMGWYRQAPGKEREFVASSTWSGGSTYYADSVKGRFTISRDNAKNTVYFQMNSLKPEDTAVYYCAADSWFKYDYWGQGTQVTVSS	low polyreactivity
QVQLVESGGGLVQAGGSLRLSCAASGRTLRWYAMGWYRQAPGKERELVAAINWSGTSTYYADSVKGRFTISRDNAKNTVYLQMNSLKPEDTAVYYCAKRVTWNYDWGQGTQVTVSS	high polyreactivity
QVLLVESGGGLVQEGGSLRLSCAASGIIFQFYAMGWYRQAPGKERELVAAISRSGGITHYADSVKGRFTISRDNAKNTVYLQMNSLKPEDTAVYYCAAVRQAYPRLDYWGQGTQVTVSS	high polyreactivity
QLQLVETGGGLVQAGGSLRLSCAASGRIYYGYAMGWYRPAPGKERELVAAISWSGGSTYYADSVKGRFTISRDNAKNTVYLQMNSLKPEDTAVYYCARDAPYLYRAFDYWGQGTQVTVSS	high polyreactivity

====

Experiment: yeast display, Sf9 membrane polyspecificity reagent, FACS + sequencing; frameworks hold sequencing errors

polymer_sequence	polyreactivity (PSR sort gate)
QVQLLESGGGLVQAGGSLRLSCAASGRTFYRYAMGWYRKAPGKETELVAANSSSGGSTYYADSVKGRFTISRDNAKNTVYLQMNSLKPEDTAVYYCAAQYFLFTTPYRYAPRMGYWGQGTQVTVSS	high polyreactivity
QVQLVESGGGLVQEGGSLRLSCAASGFILVNYAMGWYRQAPGKEREFVAAISGSGTRTYYADSVKGRFTISRDNAKNTVYLQMNSLKPEDTAVYYCAARVGYRKLYYYWGQGTQVTVSS	high polyreactivity

====

Assay: yeast display, Sf9 membrane polyspecificity reagent, FACS + sequencing; frameworks hold sequencing errors

polymer_sequence	polyreactivity (PSR sort gate)
QVQHVESGGGLVQAGGSLRLSCAASGRTFAGYAMGWYRQAPGKEWELVSGITRGVITNYADSVKGRFTISRDNAKNTVYLQMNSLKPEDTAVYSCNARTFPVRLYTPRYGYWGQGTQVTVSS	high polyreactivity
QVQIVESGGGLVQAGGSLRLSCAASGSIFYYYAMGWYRQAPGKERELVAAITRSGGSTYYADSVKGRFTISRDNEKNTVYLQMNSLKPEDTAVYYCAKDAHAYRDLDYWGQGTQVTVSS	low polyreactivity
QVQLVESGGGLVQAGGSLRISSAASGSITPYYTMGWYRQAPGKERELVATITSGGNTYYADSVKGRFTISRDNAQNTVYLQLNSVKPEDTAVYYCAAEGVWGIFDYWGKGTQVTVSS	low polyreactivity
QVQLVESGGGLVQAGGSLRLSCAASGSTFLSNAMGWYRQAPGKERELVASIDWSGVSTYYADSVKGRFTISRDNAKNTVYLQMNSLNPEDTAVYYCAAEQVQSWDAYYQVEEYDYWGQGTQVTVSS	low polyreactivity
QVQLVESVGGLVQAGGSLRLSCAASGRTIRWYAMGWYRQAPGKERELVAAITFRGGRTYYADSVKGRFTISRDNEKNTVYLQMNSMKPEDTAVYYCNAVTYSSPYRFDYWGQGTQVTLSS	low polyreactivity
QVQLVESGGGLVQAGGSLRLSCAASGFTFSGNAMGWYRQAPGKEREIVAAITARGGNTFYADSVKGRFTISRDNAKNTVYLQMNSLQPEETAVSYCKRGPYYSSSKYRFSAYHRAYWGQGNQVTVSS	high polyreactivity
QVQLVESGGGLVQAGGSLRLSCSASGLTFKENAMGWYRQAPGTERELVAAISKGGGSTFYADSVKGRFTISRDNAKNTVYLQMNTLKPEDTAVYYCNADVGYRGGEEDYWGQGTQVTVSS	low polyreactivity
QVQLVESGGGLVQAGGSLRLSCAASGRIFGYYAMGWYRQAPGKESELVARISSSGGSTYYADSVKGRFTISRDNAKNTVYLQMNSLKPEDTAVYYCNTASNRSPGWRAEFDYWGQGTQVTVSS	low polyreactivity
QVQLVESGVGLVQAGGSLRLSCAASGIIFTSNTMGWYRPAPGKEREFVASINWNGSSTYADSVKGRFTISRDNAKNTVYLQMNSLKPEDTAVYYCNADYKRNSVQFSLYDYWGQGTQVTVSS	low polyreactivity
QVQLVESGGGLVQAGGSLRLSCAASGSTFVWYAMGWYRQAPGKEREFDATISWSDGSRYYADSVKGRFTISRDNAKNTVYLHMNSLKPEDPAVYYCASDVDRFFTYTYDYWGQGTQVTVSS	low polyreactivity
QVQLVESGGGLVQAGGSLRLSCAASGTFTVNTMGWSRQAPGKERELVAAISTGDTTTYADSVKGRFTISRDNAKNTVYLQMNSLKPEDTAVYYCNAVAKLYYWRYDYWGQGTQVTVSS	low polyreactivity

====

Test: yeast display, Sf9 membrane polyspecificity reagent, FACS + sequencing; frameworks hold sequencing errors

polymer_sequence	polyreactivity (PSR sort gate)
QVHLQERGGGLLQACGSQRLSCAASGSISEVQYMGWYRRAPGKEREFVAGIAPGATTYYADSVKCRFTISRDNAKNTVFLQMNSLNPEYTDVDYFEDRYVTETDHDYWGQGTQVTVCS	low polyreactivity
QVQLVESGGGLVQAGGSLRLSCAASGITFPRNAMGWYRQAPGKERELVAAISARGGNTYYADSVKGRFTISRDNSKNTGYLQMIRLKPEDTAVYDCNALGSSFSEPSEYDYWGQGTQVTVSS	low polyreactivity

====

Assay: yeast display, Sf9 membrane polyspecificity reagent, FACS + sequencing; frameworks hold sequencing errors

polymer_sequence	polyreactivity (PSR sort gate)
QVQLVESGGGLVQAGGSLRLSCAASGFIFPRYVMGWYRQAPGKERELVAAITQGGGSTYYADSVKGRFTISRDNAKNTVYLQMNSLKPEDTAVYYCAAEVWRSYGYWGQGTQVTVSS	low polyreactivity
QVQIVESGGGLVQAGGSLRIICAASGSTFDPNAMGWYRQAPGKERELVAGISTGGTRTYYADSVKGRFTISRDNAKNTVFLQLKSLKPEDTAVYYCAARFTYNVLDTIYRLYYWGQGTQVTVSS	high polyreactivity
QVQLVESGGGLVQAGGSLRLSCAASGSIIPRNVMGWYRQAPGNERELVAAISRSGGSTSYADSVKGRFTISRDNAKNTVYLQMNSLKPEDTAVYYCKAPWQRYSAPWGQGYNYWGQGTQVTVSS	high polyreactivity
QVHFVESGGGLVQAGGSLSLSCAASGLTFSYYAMGWYRQAPGKERELVARISNSGGCTYYADSVKGRFTISRDNAKITVYLQMNSLKPEDTAVYYCAALHTSLHRNKYEYWGQGTQVTVSS	high polyreactivity
QVQLVESGGGLVQAGGSLRLSCAASGRTRYPYTMGWYRQAPGKERELVAAITSSGGRTTYADSVKGRFTISRDNAKNTVFLQMYSLKPEDRAVYYCAKKFRPGYRSQYLRYSWGQGSQVTVSS	low polyreactivity
QVQLVSGGGLVQAGGSLRLSCAASGRIFGTYAMGWYRQAPGKERELVAAITSGGSTYYADSVKGRFTISRDNAKNTVYLQMNSLKPEDSAVYYCAAEYAIWTHWGRYVTGNYWGQGTQVTVSS	high polyreactivity
QVQLVESGGGLVQAGGSLRLSCAASGLIFGDYAMGWYRPAPGKERELVAAITGSVTRTYYADSVKGRFTISRDNAKNTVYLQMNSLKPEDTAVYYCATRVHYIGFYDYDYWGQGTQVTVSS	low polyreactivity
QVQLVESGGGLVQAGGSLRLSCAASGIIFIGYTMGWYRQAPGKERELVAAISRIGGSTYYADSVKGRFTISRDNAKNTVYLQMNSLKPEDTAVYYCAAQYYGSSYRRGYYWGQGTQVTVSS	high polyreactivity
QVQLVESGGGLVQAGGSLRLSCAASGTFGGYAMGWYRQAPGKERELVARIRRNGGSTYYADSVKGRFTISRDTAKNTVYLQMNSLKPEDTAVYYCATDQLSLSSYFRPYDYGYWGQGTQVTVSS	high polyreactivity
QDQLVESGGGLVQAGGSLRLSCAASGSTFVRSVMGWYRQAPGKERELVAAISRRGGSTYYADSVKGRFTISRDNAKNTVYLQMNSQKPEDTAVYYCARTVGYRTLLESDSWGQGTQVTVAS	high polyreactivity
QVQLVESGGGLVQAGGSLRLSCAASGITYGRYTMGWYRQAPGKERELVAAITNGDITDYADSVKGRFTISRDNAKNTVYLQMNSLKPEDTAVYYCAALLLYQNDHWGQGTQVTVSS	high polyreactivity

Values from the nanobody polyreactivity screen of Harvey et al. (2022)
